FYI, the data here is from PubChem BioAssay AID463173.

test system: Wild type; test: S. aureus survival, RN4220 and DeltatarO strains – OD600, teichoic acid synthesis inhibitors, primary screen (AID 463173); details: S. aureus RN4220 wild type/DeltatarO growth, OD600, 18 h, screened at 18.75 µg/mL (by protocol)
Screen size: about 52,000 compounds; about 1,700 (3.3%) were called active. Rule as the data show it: active = survival mostly below about 52% (no sharp cut-off); inactive = mostly above about 56%. Shown is part of a subset that was picked to be rich in actives.
Please reply with one of these outcomes: active, inactive

INSERT INTO results (recordsmiles, categorylabel) VALUES
  ('O=C(CN1C(=O)c2ccccc2Sc2ncccc21)Nc1cccc(C(F)(F)F)c1', 'inactive');

In: Lab log entry: CC(C)C(=O)N1CCN(c2ccc(NC(=O)c3ccccc3)cc2)CC1 — outcome as called in the assay?
Out: inactive

In: Now consider CCOc1ccccc1NC(=O)c1c(NC(=O)COc2ccc(Cl)cc2)sc2c1CCCCC2 .
Out: inactive

In: Do the same for Cn1nnc2c(NCc3ccccc3)ncnc21 please
Out: active

In: Repeat for the following compound: O=C(Nc1nnc(S(=O)(=O)N2CCc3ccccc32)s1)c1ccccc1Cl
Out: inactive

In: Then what about the compound O=C(Nc1nnc(S(=O)(=O)N2CCc3ccccc32)s1)c1ccccc1 ?
Out: inactive

---

test system: Wild type; experiment: S. aureus survival, RN4220 and DeltatarO strains – OD600, teichoic acid synthesis inhibitors, primary screen (AID 463173); conditions: S. aureus RN4220 wild type/DeltatarO growth, OD600, 18 h, screened at 18.75 µg/mL (by protocol)
The campaign covered roughly 52,000 compounds. About 1,700 (3.3%) were called active. Rule as the data show it: active = survival mostly below about 52% (no sharp cut-off); inactive = mostly above about 56%. Many of the other results were omitted from the sample, so actives are more common in it than they were.
Respond only with the outcome that fits, drawn from True for active, False for inactive

INSERT INTO assay_data (molecule, categorylabel) VALUES
  ('Cc1ccccc1CNC(=O)c1cc2cc(S(=O)(=O)N3CCCCC3)ccc2n1C', 'False');

In: Dear colleague, could you share the recorded outcome for COc1cc2c(cc1NC(=O)COc1cc(C)cc(C)c1)oc1ccccc12 when you have a moment?
Out: False

In: Request: COc1cc2c(cc1NC(=O)C(C)Oc1ccccc1)oc1ccccc12 (stereo unspecified)
Out: True

In: Would you kindly repeat that for CC(=O)C1=C(c2ccc(C)cc2)N(C(C)=O)n2c(nnc2-c2ccccc2)S1 ?
Out: False

In: Now consider CCC(C)NC(=O)c1cc2cc(S(=O)(=O)N3CCCCC3)ccc2n1C (stereo unspecified) and answer again.
Out: True

---

system: Wild type; assay: S. aureus survival, RN4220 and DeltatarO strains – OD600, teichoic acid synthesis inhibitors, primary screen (AID 463173); conditions: S. aureus RN4220 wild type/DeltatarO growth, OD600, 18 h, stronger effect = lower value, screened at 18.75 µg/mL (by protocol)
Out of some 52,000 compounds screened, about 1,700 (3.3%) were called active. The full list was thinned out, with actives kept by preference.
measuredEndpoint: survival (%)
Answers are plain numbers, in %.

Sample records with survival:
INSERT INTO measurements (compound, uom, recordedmeasurement) VALUES
  ('COc1cc(Cl)c(NC(=O)CN(C)S(=O)(=O)c2ccc3c(c2)CCCC(=O)N3)c(OC)c1', '%', 59),
  ('COC(=O)COc1ccc(S(=O)(=O)N2CCCCC2)cc1C', '%', 117),
  ('COc1ccc(CNC(=O)c2ccc(CS(=O)(=O)c3ccccc3OC)o2)cc1', '%', 76),
  ('CCc1cccc(C)c1NC(=O)CN1C(=O)C2(SCC(=O)N2c2cccc(F)c2)c2ccccc21 (stereo not given)', '%', 136),
  ('Cc1ccc2oc(C(=O)Nc3nc(-c4ccc(F)cc4)ns3)c(C)c2c1', '%', 87);

Count: 5. Required value per item: survival.
1. NC(=O)CSc1nsc(SCC(N)=O)n1
2. CC(C)NC(=O)C1CCCCC1C(=O)O (stereo not given)
3. COc1cc(OC)c(NC(=O)CN(C)S(=O)(=O)c2ccc3c(c2)CCCC(=O)N3)cc1Cl
4. Cc1ccc(NC(=O)CCNS(=O)(=O)c2ccc3c(c2)CCCC(=O)N3)cc1
5. CCOc1ccc(-c2cc(-c3nc(-c4cc(OC)c(OC)c(OC)c4)no3)[nH]n2)cc1

Out:
109
88
1
73
123

---

system: Wild type; experiment: S. aureus survival, RN4220 and DeltatarO strains – OD600, teichoic acid synthesis inhibitors, primary screen (AID 463173); conditions: S. aureus RN4220 wild type/DeltatarO growth, OD600, 18 h, stronger effect = lower value, screened at 18.75 µg/mL (by protocol)
Hit rate of the full screen: of about 52,000 compounds, about 1,700 (3.3%) were called active. The full list was thinned out, with actives kept by preference.
measuredEndpoint: survival

INSERT INTO measurements (recordsmiles, recordedmeasurement) VALUES
  ('COc1ccccc1CNc1nccn(-c2ccc(F)cc2)c1=O', '76% (inactive)'),
  ('COc1ccc(-n2ccnc(NCc3ccccc3Cl)c2=O)cc1OC', '71% (inactive)'),
  ('O=c1c(NCc2ccccc2Cl)nccn1-c1ccccc1', '-1% (active)'),
  ('Cc1cc(C)cc(OCCn2c(CCNC(=O)C3CCCCC3)nc3ccccc32)c1', '105% (inactive)'),
  ('Cc1ccccc1OCCCn1c(CCNC(=O)C2CCCCC2)nc2ccccc21', '65% (inactive)');

In: What measured survival goes with Cc1cc(C)cc(-n2ccnc(NCCc3ccccc3)c2=O)c1 ?
Out: 75% (inactive)

---

test system: Wild type; test: S. aureus survival, RN4220 and DeltatarO strains – OD600, teichoic acid synthesis inhibitors, primary screen (AID 463173); conditions: S. aureus RN4220 wild type/DeltatarO growth, OD600, 18 h, stronger effect = lower value, screened at 18.75 µg/mL (by protocol)
Among all 52,000 compounds or so, about 1,700 (3.3%) were called active. The sample holds actives, similar compounds and a random draw of the others, so the mix is not that of the screen.
measuredEndpoint: survival (%)
Numbers only, in %.

Known survival results, listed for orientation:
INSERT INTO assay_data (compound, uom, recordedmeasurement) VALUES
  ('COc1cccc(CNC(=O)c2cc(C)nc3c2c(C)nn3-c2cccc(F)c2)c1', '%', 131),
  ('CCOC(=O)C1CCN(C(=O)c2cc3sc(C)cc3n2C)CC1', '%', 89);

// for each compound in input: emit survival
1. Cc1cccc(C)c1Nc1c(-c2ccccc2F)nc2cccc(C)n12
2. Cc1ccc(C)c(N2CCN(C(=O)c3cc(C)nc4c3c(C)nn4-c3cccc(F)c3)CC2)c1

Out:
[7, 0]

// input: 6 compounds below; output: survival for each
1. CC1=C(C(=O)OCc2ccc(C)cc2)C(c2ccccc2F)CC(=O)N1 (stereo not given)
2. CCC(C)NC(=O)c1sc2nc(C)c(C(=O)Nc3ccc(Cl)cc3)c(-c3ccc(Br)cc3)c2c1N (stereo not given)
3. CC(C)CC(=O)Nc1ccc(C(=O)OCc2cc(=O)n3nc(C(C)C)sc3n2)cc1
4. Cc1cccc2nc(-c3ccccn3)c(Nc3ccc(F)cc3)n12
5. Cc1ccc(C)c(N2CCN(C(=O)c3cc(C)nc4c3c(C)nn4-c3ccccc3)CC2)c1
6. CSc1ccc(-c2nc3cccc(C)n3c2Nc2ccc(Cl)cc2)cc1

Out:
115
106
138
4
134
101

---

test system: Wild type; test: S. aureus survival, RN4220 and DeltatarO strains – OD600, teichoic acid synthesis inhibitors, primary screen (AID 463173); details: S. aureus RN4220 wild type/DeltatarO growth, OD600, 18 h, screened at 18.75 µg/mL (by protocol)
The whole screen tested about 52,000 compounds, of which about 1,700 (3.3%) were called active. Cut-off read from the data, not from the text of the source: active = survival mostly below about 52% (no sharp cut-off); inactive = mostly above about 56%. The sample holds actives, similar compounds and a random draw of the others, so the mix is not that of the screen.
Tick one outcome: True (active), False (inactive)

Solved cases below.
INSERT INTO results (molecule, categorylabel) VALUES
  ('Cc1cc(N2CCC(C(=O)N(CC(C)C)CC(C)C)CC2)n2nc(C)c(-c3ccc(Cl)cc3)c2n1', 'False'),
  ('CC(C)C(=O)Nc1cccc(-c2nc3ccccc3o2)c1', 'False'),
  ('CCc1ccc(-c2nc3cc(NC(=O)c4cc5ccccc5cc4OC)ccc3o2)cc1', 'True'),
  ('Cn1c(=O)c2c(nc3n(-c4ccc(O)cc4)c(-c4ccc(Br)cc4)cn23)n(C)c1=O', 'False'),
  ('CS(=O)(=O)N1CCC(N2CCN(Cc3ccc(F)cc3)C(=O)C2=O)CC1', 'False');

In: Which outcome did this test record for the molecule CN(C)N1C(=O)CC(N2CCCC2)C1=O (stereo not given) ?
Out: False

In: Lookup COc1ccc(NC(=O)CSc2nnc(N)s2)cc1
Out: False

In: Also Cc1cccc(OCC(=O)Nc2c(C(=O)N3CCN(c4ccccc4)CC3)oc3ccccc23)c1 , if possible.
Out: False

In: Lookup COc1ccc(-c2nc3ccccc3o2)cc1NC(=O)Cc1ccc(Cl)cc1
Out: False

In: Could you do the same for COc1ccc(Nc2nn(-c3ccc(OC(F)(F)F)cc3)nc2C(C)=O)cc1 , please?
Out: False
